The origin of these recorded values is paper PMC10584170.

tested on: P. falciparum female gametocytes; assay: P. falciparum Dual Gamete Formation Assay (PfDGFA), female readout (Pfs25-positive female gametes); assay type: cell-based, Plasmodium falciparum NF54; conditions: PfDGFA at 2µM, 24h preincubation with gametocytes prior to induction of gametogenesis; replicate R1
Endpoint Name: % inhibition female (individual replicates) R1 (%)
One number for each entry, in %.

Test Smiles: OCc1c(Cl)cc(Cl)cc1CNCCCNc1nc2ccccc2[nH]1
Assayed Target: P. falciparum female gametocytes
Experimental Result: -1.6
--
Test Smiles: Cc1c(Cc2ccccc2Br)cnc2nc(N)nc(N)c12.Cl
Assayed Target: P. falciparum female gametocytes
Experimental Result: 1.3
--
Test Smiles: CN(C)Cc1c(O)ccc2[nH]c(-c3cccc(F)c3)nc12
Assayed Target: P. falciparum female gametocytes
Experimental Result: 14.3

// batch mode: one % inhibition female (individual replicates) R1 value per listed entry
1. Cc1nc2nc(N)nc(N)c2c(C)c1Cc1ccccc1Br.Cl
2. O=C(O)C(F)(F)F.c1cc(CNCCN2CCNCC2)cc(-c2ccc(-c3nc4ccccc4[nH]3)cc2)c1

1: 10.1; 2: -3.1

* * *

system: P. falciparum male gametocytes; test: P. falciparum Dual Gamete Formation Assay (PfDGFA), male readout (exflagellation); type: cell-based, Plasmodium falciparum NF54
For each entry below, report its Cytotox ratio Pf Male value.
Answers are plain numbers.

Here are 5 molecules together with their reported answers.
Molecule: COc1ccc2nc(-c3cc(-c4ccc(NC(=O)C(C)C)cc4)cnc3N)[nH]c2c1 [TC32]
Cytotox ratio Pf Male: 19.8
//
Molecule: c1ccc(-c2nc(Nc3nc4ccccc4[nH]3)[nH]c2-c2ccccc2)cc1 [TC56]
Cytotox ratio Pf Male: 14.3
//
Molecule: CCS(=O)(=O)Nc1ccc2c(c1)/C(=C(/Nc1ccc(CN3CCCCC3)cc1)c1ccccc1)C(=O)N2 [TC81]
Cytotox ratio Pf Male: 877.0
//
Molecule: Br.CC[C@H]1CN2CCc3cc(OC)c(OC)cc3[C@@H]2C[C@@H]1C[C@H]1NCCc2c1cc(OC)c(O)c2I [TC07]
Cytotox ratio Pf Male: 7.0
//
Molecule: CN(C)CCCn1c(N)c(-c2nc3ccccc3[nH]2)c2nc(C#N)c(C#N)nc21 [TC72]
Cytotox ratio Pf Male: 14.8

// each listed molecule needs a value for Cytotox ratio Pf Male
1. COc1ccc(Nc2ncc(OC)c(Nc3ccccc3C(N)=O)n2)cc1N1CCN(C)CC1.O=CO [TC59]
2. FC(F)(F)c1cccc(NC(=S)NN=Cc2ccccn2)c1 [TC06]

52.0
142.9

Report Cytotox ratio Pf Male for each item below.
1. Fc1ccc2[nH]c(-c3ccc(-c4ccc(CNCCN5CCNCC5)cc4)cc3)nc2c1.O=C(O)C(F)(F)F [TC31]
2. O=C(O)CCSSc1cccc[n+]1[O-] [TC78]

12.1
92.3

Hi! Can you tell me Cytotox ratio Pf Male for each of these molecules?
1. CCn1c(-c2nonc2N)nc2c(-c3ccccc3)ncc(OCCCNCCCN3CCOCC3)c21.O=C(O)C(F)(F)F [TC62]
2. FC(F)(F)c1ccc2[nH]c(-c3ccc(-c4cccc(CNCCN5CCNCC5)c4)cc3)nc2c1.O=C(O)C(F)(F)F [TC77]
3. Nc1cc(C=Cc2ccc([N+](=O)[O-])o2)nc2ccccc12 [TC58]
4. CNC(=O)c1cnc(Nc2ccc(N3CCN(C)CC3)cc2)nc1Nc1ccccc1OC.O=C(O)C(F)(F)F [TC16]

11.8
10.0
44.7
29.7

For each listed entry, give its Cytotox ratio Pf Male.
1. COCCCNC(=S)NN=C(C)c1ccccn1 [TC19]
2. O=C(O)C(F)(F)F.O=c1[nH]ccc2nc(N[C@@H]3CCCNC3)nc(Nc3ccc(S(=O)(=O)N4CCOCC4)cc3)c12 [TC42]

[20.8, 563.3]

For each of the molecules below, state Cytotox ratio Pf Male.
1. Nc1cc(C=Cc2ccc([N+](=O)[O-])s2)nc2ccccc12 [TC80]
2. O=C(c1ccc(-c2cnc3[nH]cc(-c4ccc(C(=O)N5CCOCC5)cc4)c3c2)cc1)N1CCOCC1 [TC43]
3. COc1cc(-c2nc(C(C)(C)CN)[nH]c2-c2ccncc2)ccc1Br.Cl [TC27]
4. COCCN(C)CCCOc1cc2c(cc1OC)ncn2-c1cc(OCc2ccccc2C(F)(F)F)c(C(N)=O)s1.Cl [TC14]
5. CN(C)c1ccnc2ccc(NC(=O)Nc3ccnc4ccccc34)cc12 [TC74]

14.2
65.9
23.6
22.0
13.3

Take each entry in turn and give its Cytotox ratio Pf Male.
1. Cc1ccc(S(=O)(=O)N(CCCNCc2cccc(O)c2)c2ccccc2)cc1 [TC44]
2. COc1ccc(-c2cnc(N)c(-c3ccc(C(N)=O)cc3)c2)cc1OC [TC26]
3. COc1ccc2nc3cc(Cl)ccc3c(NCCCCNc3c4ccc(Cl)cc4nc4ccc(OC)cc34)c2c1 [TC02]
4. Br.c1cc(C2=NC3CCCCC3N2)ccc1OCCCOc1ccc(C2=NC3CCCCC3N2)cc1 (stereo not drawn) [TC17]
5. Oc1cccc(CNCCCN(Cc2ccccc2)c2ccccc2)c1 [TC30]
6. COc1ccc(Nc2ncc(Cl)c(Nc3cccnc3C(N)=O)n2)cc1N1CCN(C)CC1.Cl [TC75]

[119.3, 205.6, 22.1, 27.3, 13.1, 17.8]

// batch mode: one Cytotox ratio Pf Male value per listed entry
1. Cc1cc(Nc2ccncc2)n2nc(C)c(-c3ccc(Cl)cc3)c2n1 [TC79]
2. [O-][s+]1c(Cl)c(-c2ccc(Cl)cc2)c2ccc(Cl)cc21 (stereo not drawn) [TC66]
3. Fc1ccc2[nH]c(-c3ccc(-c4ccc(CNCCN5CCNCC5)cc4)s3)nc2c1.O=C(O)C(F)(F)F [TC23]
4. O=C(NC1CCN(Cc2ccccc2)CC1)c1cc(C(=O)NC2CCN(Cc3ccccc3)CC2)cc(C(=O)NC2CCN(Cc3ccccc3)CC2)c1 [TC20]
5. Br.c1cc(Nc2nc(-c3ccc(-c4csc(Nc5ccncc5)n4)cc3)cs2)ccn1 [TC35]
6. CCc1cc2c(Sc3nnc(N)s3)ncnc2s1 [TC12]
7. O=C(Cc1cccc(O)c1)NCC(Cc1ccc(O)cc1)c1ccccc1 (stereo not drawn) [TC08]

[60.8, 99.4, 12.4, 13.0, 26.8, 47.6, 58.1]

Provide each entry's Cytotox ratio Pf Male from the list below.
1. O=c1c(Br)ccccc1Br [TC48]
2. CN1CCN(c2ccc(Nc3c4ccccc4nc4ccccc34)cc2)CC1 [TC57]

1. 76.3
2. 45.2

Under P. falciparum male gametocytes: Cytotox ratio Pf Male value of Cn1c(Sc2ncnc3sccc23)nc2ccccc21 [TC34] ?
138.9
